# TESTED SYSTEM: AR protein (Homo sapiens, UniProt P10275, T878A)
# Construct: degradation activity of the compounds disclosed in the present disclosure on AR protein in LNCaP cells; host or cells: LNCaP FGC
# Sequence (P10275 whole entry T878A): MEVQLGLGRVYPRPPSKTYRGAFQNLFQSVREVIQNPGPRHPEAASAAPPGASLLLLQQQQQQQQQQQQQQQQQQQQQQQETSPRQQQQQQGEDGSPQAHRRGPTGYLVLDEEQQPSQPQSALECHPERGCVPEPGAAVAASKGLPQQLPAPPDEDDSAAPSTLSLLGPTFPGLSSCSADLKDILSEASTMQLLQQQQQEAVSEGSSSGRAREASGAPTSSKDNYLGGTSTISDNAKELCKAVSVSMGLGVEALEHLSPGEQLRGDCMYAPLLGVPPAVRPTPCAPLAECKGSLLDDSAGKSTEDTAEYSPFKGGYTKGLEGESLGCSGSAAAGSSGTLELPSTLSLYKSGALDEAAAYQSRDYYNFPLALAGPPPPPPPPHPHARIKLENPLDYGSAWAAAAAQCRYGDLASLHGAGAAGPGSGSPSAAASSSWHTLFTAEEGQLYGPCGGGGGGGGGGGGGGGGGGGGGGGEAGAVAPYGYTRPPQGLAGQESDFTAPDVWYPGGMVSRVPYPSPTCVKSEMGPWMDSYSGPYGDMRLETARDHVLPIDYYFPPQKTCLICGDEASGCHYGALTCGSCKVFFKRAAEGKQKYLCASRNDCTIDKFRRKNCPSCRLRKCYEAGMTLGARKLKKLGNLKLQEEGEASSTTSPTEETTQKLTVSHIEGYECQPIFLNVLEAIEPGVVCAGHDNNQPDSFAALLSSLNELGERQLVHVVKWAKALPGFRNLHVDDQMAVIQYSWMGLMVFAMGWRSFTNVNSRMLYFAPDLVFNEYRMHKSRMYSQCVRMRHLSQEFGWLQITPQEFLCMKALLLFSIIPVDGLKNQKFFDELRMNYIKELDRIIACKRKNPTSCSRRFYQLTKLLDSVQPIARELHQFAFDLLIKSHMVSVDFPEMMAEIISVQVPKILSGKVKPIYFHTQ
# ASSAY PROTOCOL: Degradation of AR protein in LNCaP cells (Western blot)
# Type: cell-based
# EXPERIMENTAL SETUP: LNCaP, 8 h, read-out: Degradation rates of the AR protein in LNCaP cells, 100 nM (%)
PARAMETER MEASURED: inhibition at 0.1 µM

Answered examples (2):
1. N#Cc1ccc(O[C@H]2CC[C@H](NC(=O)c3ccc(N4CC(N5CCC6(CC5)Oc5cc7c(cc5CC6(F)F)C(=O)N(C5CCC(=O)NC5=O)C7=O)C4)nn3)CC2)cc1Cl (some centres unmarked) ... 29%
2. N#Cc1ccc(O[C@H]2CC[C@H](NC(=O)c3ccc(N4CCC(N5CCC6(CC5)COc5c(ccc7c5C(=O)N(C5CCC(=O)NC5=O)C7)C6)CC4)nn3)CC2)cc1Cl (some centres unmarked) ... 57%

Problem: State, in one line, measured inhibition at 0.1 µM of N#Cc1ccc(O[C@H]2CC[C@H](NC(=O)c3ccc(N4CC(N5CCC6(CC5)COc5c6ccc6c5CN(C5CCC(=O)NC5=O)C6=O)C4)nn3)CC2)cc1Cl (some centres unmarked)
Result: 51%

Problem: State, in one line, measured inhibition at 0.1 µM of N#Cc1ccc(O[C@H]2CC[C@H](NC(=O)c3ccc(N4CC(N5CCC6(CCc7cc8c(cc7O6)C(=O)N(C6CCC(=O)NC6=O)C8)CC5)C4)nn3)CC2)cc1Cl (some centres unmarked)
Result: 47%

Problem: State, in one line, measured inhibition at 0.1 µM of COc1cc(O[C@H]2CC[C@H](NC(=O)c3ccc(N4CCC(CN5CC6(CCc7cc8c(cc7O6)C(=O)N(C6CCC(=O)NC6=O)C8=O)C5)(OC)CC4)cc3)CC2)ccc1C#N (some centres unmarked)
Result: 54%

###

# System: LNCaP FGC cells
# ASSAY PROTOCOL: Inhibition of proliferation of LNCaP cells (WST-8)
# Assay type: cell-based
# EXPERIMENTAL SETUP: Homo sapiens, LNCaP, 96 h, read-out: IC50 for inhibiting the proliferation of LNCaP cells
# Experimental: The cells were cultured in a cell culture incubator with 5% CO2 at 37° C. overnight. […] On the sixth day, 96 well plates were taken out, and 20 μL of WST-8 (Beytime, C0040) reagent was added to each well.
PARAMETER MEASURED: IC50 (µM)
Entry rule: numbers only, all in µM.

Problem: Provide LNCaP FGC cells IC50 reading for N#Cc1ccc(O[C@H]2CC[C@H](NC(=O)c3ccc(N4CCC(CC5CC5)(CN5CCC6(CC5)COc5c6ccc6c5CN(C5CCC(=O)NC5=O)C6=O)CC4)nn3)CC2)cc1Cl (stereo partly shown) .
Result: 0.055

###

# maps each entry to its inhibition at 0.1 µM
# TESTED SYSTEM: AR protein (Homo sapiens, UniProt P10275, T878A)
# Construct: degradation activity of the compounds disclosed in the present disclosure on AR protein in LNCaP cells; host or cells: LNCaP FGC
# ASSAY PROTOCOL: Degradation of AR protein in LNCaP cells (Western blot)
# Format: cell-based
# EXPERIMENTAL SETUP: LNCaP cells, compound 100 nM, 8 hours, Western blot grayscale, GAPDH internal reference; read-out: Degradation rates of the AR protein in LNCaP cells, 100 nM (%)
# Procedure: The degradation activity of the compounds disclosed in the present disclosure on AR protein in LNCaP cells (cell source: ATCC) Corresponding solvent controls were also set and cultured for 8 hours. After 8 hours of cultivation, the culture medium was removed and the cells were washed with PBS. […] The protein concentration in the extract was detected by BCA method. […] Bands were analyzed in grayscale using Image Studio software. For each sample, GAPDH protein bands were detected as internal reference. […]
Entry rule: numbers only, all in %.

Answered examples (5):
1. N#Cc1ccc(O[C@H]2CC[C@H](NC(=O)c3ccc(N4CCC5(CCC(N6CCC7(CC6)COc6cc8c(cc6C7)C(=O)N(C6CCC(=O)NC6=O)C8=O)CC5)C4)nn3)CC2)cc1Cl (stereo partly shown) ... 76
2. COc1cc(O[C@H]2C(C)(C)[C@H](NC(=O)c3ccc(N4CCC(CN5CC6(CCc7cc8c(cc7O6)C(=O)N(C6CCC(=O)NC6=O)C8=O)C5)CC4)cc3)C2(C)C)ccc1C#N (stereo partly shown) ... 60
3. CCOC1(CN2CCC3(CC2)COc2c3ccc3c2CN(C2CCC(=O)NC2=O)C3=O)CCN(c2ccc(C(=O)N[C@H]3CC[C@H](Oc4ccc(C#N)c(Cl)c4)CC3)nn2)CC1 (stereo partly shown) ... 1
4. COc1cc(O[C@H]2CC[C@H](NC(=O)c3ccc(N4CCC(C#N)(CN5CCC6(CC5)COc5c6ccc6c5C(=O)N(C5CCC(=O)NC5=O)C6=O)CC4)nn3)CC2)ccc1C#N (stereo partly shown) ... 59
5. N#Cc1ccc(O[C@H]2CC[C@H](NC(=O)c3ccc(N4CCC(CN5CCC6(CC5)Cc5cc7c(cc5O6)C(=O)N(C5CCC(=O)NC5=O)C7=O)CC4)nn3)CC2)cc1Cl (stereo partly shown) ... 70

Here is another molecule to look at.
Problem: State, in one line, measured inhibition at 0.1 µM of COC1(CN2CCC3(CC2)COc2ccc4c(c2C3)C(=O)N(C2CCC(=O)NC2=O)C4)CCN(c2ccc(C(=O)N[C@H]3CC[C@H](Oc4ccc(C#N)c(Cl)c4)CC3)nn2)CC1 (stereo partly shown)
Result: 36
